Assay: Human HepG2 cell viability assay in 384 well format
Assay type: toxicity, cell-based
Set-up: dose 125 nL, time 70.5 hour; concentration not given beside the values
Details: HepG2 cells, read-out: Inhibition
// reported cytotoxicity at 70.5 h per item

Molecule	cytotoxicity at 70.5 h
Cc1nn(C)c(Cl)c1C1CCCN1Cc1ccc(C(N)=O)cc1 (stereo unspecified)	-7.15%
CCN1CC2(CC1=O)CN(Cc1cnn(C)c1)CCN(C(=O)N(C)C)C2 (stereo unspecified)	9.62%
CCNC(=O)N(C)Cc1ccc(SC)c(OC)c1	-7.42%
Cc1cc(N2CC(c3n[nH]c4nccnc34)C2)ncn1	-9.37%
Cc1nc(CN2CCOCC3(CCN(c4cccnc4)CC3)C2)cs1	2.23%
CCCC(=O)Nc1cccc([C@H]2C[C@@H](NC(C)=O)CCO2)c1	-12.2%
CCOc1ncccc1CNCc1c(C)nn(C)c1N(C)C	24.1%
CN(C)Cc1cc(-c2nccn2CCc2cccnc2)ccc1O	-5.02%
N#Cc1ccc(CNC(=O)NC2CCN(CC(F)(F)F)C2)cc1 (stereo unspecified)	-5.15%
Cc1nc(N2C[C@@H](CN3CCCN(C)CC3)[C@@H](CO)C2)c2sccc2n1	27.9%
Cc1nn(C)cc1C(=O)N1CCC(CSc2ccccc2)C1 (stereo unspecified)	-1.58%

###

Assay: Human HepG2 cell viability assay in 384 well format
Type: toxicity, cell-based
Parameters: dose 125 nL, time 70.5 hour; concentration not given beside the values
Conditions: HepG2 cells, read-out: Inhibition
// reported cytotoxicity at 70.5 h per item

Compound	cytotoxicity at 70.5 h [%]
CCNc1cc2c(nn1)CCN(C(=O)c1cc3ccccc3o1)C2	-6.18
CCNC(=O)[C@@H]1C[C@@H](NC(=O)Cc2cc(C)no2)CN1Cc1ccsc1	-12.7
CN(C)[C@H]1C[C@@H](Cc2cc(-c3ccc(F)cc3)on2)C1(C)C	-0.292
O=C(NCC1CC1)c1cc(Br)cnc1N1CCCCC1	-1.59
Cc1ccc(C(=O)NC2CCCN(S(C)(=O)=O)C2)c(=O)[nH]1 (stereo not drawn)	-2.62
Cc1nn(C(C)(C)C)c(=O)n1CC(=O)NC(C)(C)C	10.6
CN1CCN(Cc2ccc(-c3ccc4[nH]ccc4c3)nc2)CC1	-15.3
Cc1ccccc1N1CCN(C(=O)c2cnn(C(C)C)c2)C(C)C1 (stereo not drawn)	-4.79
CC(=O)Nc1ncc(S(=O)(=O)Nc2cccc(F)c2)s1	-8.84
COc1cc(-c2cc(-c3ccn(C)c3)nc(N)c2C#N)cc(OC)c1O	-1.48
Cc1ccc(-c2cc(C(=O)NC(C)C(=O)N3CCCCC3)on2)cc1 (stereo not drawn)	5.48
CCn1ncnc1CN1CCc2[nH]cnc2C1CCc1ccccc1 (stereo not drawn)	-4.41
COCc1cccc(C(=O)N2C[C@H]3CC[C@@H]2CN(Cc2cscn2)C3)n1	34.5
CN(C)CCN(Cc1ccccc1)C(=O)CN1CCCNC1=O	-0.477
CC(C)c1ccc(S(=O)(=O)N2CCCC3(CCCN3S(C)(=O)=O)C2)cc1 (stereo not drawn)	39.5
N#CCCSc1nnc(Cc2ccccc2F)o1	-3.12
CC(NC(=O)NCCCN(C)S(C)(=O)=O)c1cccc(Cl)c1 (stereo not drawn)	-7.23
COc1cccc(Cn2ncnc2CNC(C)=O)c1	-10.5
O=C(NCc1cccnc1)N1CCSCC1CCO (stereo not drawn)	13.2
CCc1ccsc1C(=O)N1CCN(C(=O)c2ccc(C)o2)CC1	-5.92
COc1c(C)cnc(CNC(=O)CCOCc2ccccc2)c1C	-3.15
CCN1CCN(C(=O)c2cc(C(F)(F)F)n[nH]2)[C@H]2CS(=O)(=O)C[C@H]21	-18.6
CNC(=O)[C@H]1C[C@@H]2CN(C(=O)c3ccncc3F)C[C@@H]2N1C	-16.9

###

Test: Human HepG2 cell viability assay in 384 well format
Assay type: toxicity, cell-based
Parameters: dose 125 nL, time 70.5 hour; concentration not given beside the values
Conditions: HepG2 cells, read-out: Inhibition

Compound	cytotoxicity at 70.5 h
CC(O)CN1CCC(CNCc2cccc(C(F)(F)F)c2)CC1 (centres undefined)	2.27%
CN1CCCC2(CCN(C(=O)CCn3cncn3)C2)C1=O (centres undefined)	-10.5%
CCCC(C)N(C)Cc1nnc(-c2ccco2)o1 (centres undefined)	1.45%
COC(=O)Cn1ccc(NS(=O)(=O)c2ccc3c(c2)CCC3)n1	17%
COC(=O)c1ccc(NC(=O)[C@@H]2CCCN2C(=O)c2ccco2)s1	-7.02%
Cc1cc2c(cc1C)OC(C(=O)NCCNC(=O)C1CCCC1)C2 (centres undefined)	-6.43%
Cc1nc2cc(O)nn2c(C)c1CCC(=O)N(C)Cc1cscn1	30.1%
COc1ccc(CNC(=O)NCc2c(C)cc(C)[nH]c2=O)cc1	-11.9%
CC(C)c1n[nH]c(C2CN(C(=O)c3cc4c(s3)CCC4)CCO2)n1 (centres undefined)	-8.59%
CCc1ccc(CN2CCCn3c(nc(Cn4ccnc4)cc3=O)C2)o1	-0.664%
OCCN1CCCC(c2nccnc2Oc2ccc(F)cc2)C1 (centres undefined)	-2.84%
COCCC(Cc1cccc(Br)c1)C(=O)NCC(N)=O (centres undefined)	-9.6%
COCC[C@]1(O)CCN(Cc2nc(C)c(C)s2)C[C@H]1C	-7.5%
CC(C)CNC(=O)Nc1cccc(CN2CCOC2=O)c1	-6.71%
CC1CN(C)CCN1C(=O)c1ccn(-c2ccccc2Cl)n1 (centres undefined)	16.7%
C=C(C)COc1cccc(CNC(CC)c2ccnn2C)c1 (centres undefined)	1.1%
O=C(NCc1ccccn1)NCC(c1ccco1)N1CCCCC1 (centres undefined)	-5.04%
CS(=O)(=O)N1CCOCC2(CCN(C(=O)c3cccnc3)CC2)C1	-7.84%
O=C1N(Cc2cccnc2)C[C@H]2CN(S(=O)(=O)c3ccccc3)CCN12	1.73%
CCc1nnc2n1CCN(C(=O)C(C)Oc1cccc(C#N)c1)C2 (centres undefined)	12.9%
CN1CCCC(CCC(=O)N2CCc3c(nc(CC4CC4)[nH]c3=O)C2)C1 (centres undefined)	-4.3%
Cc1ccc(-c2nn(C)c(C(=O)O)c2Br)cc1	-20.5%
c1ccc2oc(CCCN3CCc4cncnc4C3)nc2c1	-2.93%
COc1cc(N2C[C@H]3OCC[C@H]3[C@H](C(=O)N3CCCC3)C2)ncn1	27.7%

###

// reported cytotoxicity at 70.5 h per item
Assay: Human HepG2 cell viability assay in 384 well format
Type: toxicity, cell-based
Set-up: dose 125 nL, time 70.5 hour; concentration not given beside the values
Settings: HepG2 cells, read-out: Inhibition
Assay metric: cytotoxicity at 70.5 h (%)

Molecule	Numeric readout
CCc1cc(C(=O)N[C@H]2CN(CCS(C)(=O)=O)C[C@@H]2C2CC2)[nH]n1	-13.2
Cc1cccc(CCC(=O)NCC2CCCN2c2cccnn2)c1 (stereo not drawn)	5.29
Cc1cc(C(=O)N2CCCC2)ccc1NS(C)(=O)=O	-7.84
Cc1ccn2ncc(C(=O)N3CCCC(c4noc(C)n4)C3)c2n1 (stereo not drawn)	14.9
COC(=O)[C@H](C)NC(=O)COc1nn(C)c2nc(C)cc(C)c12	-16.3
O=C(NCc1cccnc1)NCC(O)c1ccccc1C(F)(F)F (stereo not drawn)	-9.13
Cc1cnn(CC2CN(Cc3nccn3CC(F)(F)F)CCO2)c1 (stereo not drawn)	26.3
Cc1nc[nH]c1CN1C[C@@H]2CC[C@H](C1)N(C(=O)CCn1cncn1)C2	-15
CCOc1ccc2nc(CN3CCOC(CN)C3)ccc2c1 (stereo not drawn)	-3.44
Nc1nccc(C2CCN(c3cnccn3)C2)n1 (stereo not drawn)	21.1
COc1ncnc(N(C)C)c1NC(=O)Cc1cc(F)ccc1F	-5.92
COCCN(Cc1cnn(C)c1)Cc1ccc(C)o1	-9.85
Cc1nn(C)c2c(NCCCn3cccn3)ncnc12	-6.36
CC(Cc1c(F)cccc1F)NC(=O)CSCC(N)=O (stereo not drawn)	12.1
Cc1nccc(N2C[C@@H](CN3CCCC3)[C@@H](CO)C2)n1	-6.17
CC(C(=O)NCC1CCCCC1)S(=O)(=O)Cc1csc(-c2cccs2)n1 (stereo not drawn)	-9.36
O=S(=O)(C1CC1)N1CCO[C@H]2[C@H](OCC3CCCC3)CC[C@@H]21	1.94
Cc1cc(C(=O)Cn2cnnc2[S+](C)[O-])cc(C)c1F (stereo not drawn)	33.6
CC(C)N(Cc1ccc(Cl)c(Cl)c1)C(=O)Cn1cncn1	1.18
CCN1CCCC1CNCc1cc2cc(OC)ccc2[nH]c1=O (stereo not drawn)	-0.0295
O=C(Nc1cccc(OCc2cccc(F)c2)c1)C1COCCO1 (stereo not drawn)	-0.586
CC(=O)N1CCCN(C(=O)NCc2cc[nH]n2)CC1	44.8
O=C(C1CC1)N1C[C@H]2CCCN(S(=O)(=O)c3ccc4c(c3)CCC4)[C@H]2C1	3.41

###

Assay: Human HepG2 cell viability assay in 384 well format
Type: toxicity, cell-based
Set-up: dose 125 nL, time 70.5 hour; concentration not given beside the values
Details: HepG2 cells, read-out: Inhibition
// reported cytotoxicity at 70.5 h per item

Molecule	cytotoxicity at 70.5 h (%)
Cn1nc(C2CCCN(Cc3ccccc3)C2)c2nccnc21 (configuration not stated)	2.89
Cc1n[nH]c(C2CN(C(=O)CCOCC(F)(F)F)CCO2)n1 (configuration not stated)	-10.1
COc1ccc(CN(Cc2c[nH]cn2)CC2CCCO2)c(OC)c1 (configuration not stated)	-3.26
Cc1ccn(C)c(=O)c1NC(=O)N(C)Cc1cccc(OC(C)C)c1	18.1
Fc1cccc(-c2nc(CN3CCCC(Cn4cncn4)C3)co2)c1 (configuration not stated)	16.1
COC(=O)CC(c1ccc(O)c(Cl)c1)c1oc(C)cc(=O)c1O (configuration not stated)	1.45
Cc1ccc(-c2noc(C(O)CC(C)C)n2)nn1 (configuration not stated)	-3.31
CNc1oc(COc2ccc3c(c2)OCO3)nc1C#N	-19.3
O=C(NCc1cccnc1)C1=NN(c2ccccc2)C(=O)CN1	-13.9
Cc1nc(CN2C(=O)CC[C@@H]3[C@H]2CCN3C(=O)c2ccc[nH]2)cs1	-7.13
Cc1nnc(NCC2(c3ccccc3)CCC2)c(C#N)c1C	2.86
Cn1c2ccc(F)cc2c2ncn(CCN3CCOCC3)c(=O)c21	17.4
FC1(F)CCN(Cc2cccnc2)CC12CCN(c1ccccc1)C2 (configuration not stated)	-1.56
CCc1cnc(C)nc1NCCN1CCOCC1	-0.575
O=C(Nc1cnccn1)[C@H]1CC[C@@H]2[C@@H](CCN2Cc2ccccn2)O1	-0.71
Cc1cnn(CC2CN(c3cnc4ccccc4n3)CCO2)c1 (configuration not stated)	48.4
O=C(NCC(O)c1ccccc1Cl)c1cccc(-n2cnnn2)c1 (configuration not stated)	-0.179
CCNC(=O)CN1CCc2c(Br)ccc(F)c2C1	5.62
Cc1c(C(=O)NCC(C)C)nnn1-c1cccc2c1CCN(C(C)C)C2	-0.43
CCC(C)(NCc1nc(C)c(C)o1)c1nccs1 (configuration not stated)	15.6
CN(C)[C@@H]1CN(Cc2ccccc2O)C[C@H]1c1cn(C)c2ccccc12	44.4
Cc1nc(CC(=O)N2CCN(C(C)c3ccccc3F)CC2)cs1 (configuration not stated)	-5.6
Cc1cccc(CN2CCN3C[C@H](Oc4cccnc4)C[C@H]3C2)n1	-1.7
O=C(c1cccc2c1OCO2)N1CCCCC1Cn1cccn1 (configuration not stated)	-10.8
COC(=O)c1cc(C(=O)N2CCC(OC)CC2)n(-c2ccccc2)n1	-2.53
CCOC(=O)N1CC2(CCNCC2)c2cc(Cl)ccc21	-11.6
CCC[C@H]1CN(S(=O)(=O)c2ccc(CC)s2)C[C@@H]1N	18.1
COC1CCN(C(=O)c2ccccc2NCc2cccnc2)CC1	-2.63
Cc1cccnc1CN1CCCCC1c1ccn2ccnc2n1 (configuration not stated)	-4.81
COc1ccccc1-c1cc(NC(=O)CC2CCS(=O)(=O)C2)[nH]n1 (configuration not stated)	-9.57
CCOC(=O)C1CC2(CCCC2)N2CCC(=O)N12 (configuration not stated)	0.137
COc1ncccc1C(Cc1ccsc1)NC(=O)Cn1cccnc1=O (configuration not stated)	22.1
COc1ncc(NCc2csc(-c3ccco3)n2)cc1C(N)=O	-11
CC(=O)c1c(F)cccc1N1CCC(NS(=O)(=O)c2ccccc2)CC1	1.15
Cc1nc(C2CCCN2Cc2nc(C)c(C)o2)no1 (configuration not stated)	-2.71
CCOCCN1Cc2ncn(C)c2C(COCC2CCOCC2)C1 (configuration not stated)	-7.05
CCOCc1cccc(NC(=O)C2COCCO2)c1 (configuration not stated)	-7.73
CC(=O)N1CC2(CCN(C(=O)C3CC3)CC2)c2cc(C)ccc21	6.48
O=S(=O)(c1cccnc1)N1C[C@H]2CCC[C@@]2(COc2ccccn2)C1	-7.2
COc1cccc([C@H]2CN(C(=O)c3nnc4n3CCCC4)C[C@@H]2N)c1	-3.91
COCCN(Cc1cccc(C#N)c1)Cc1nnsc1Cl	23
COc1c(CNCC(O)c2cccc(F)c2)c(C(C)C)nn1C (configuration not stated)	2.55
CCN1CC2(CC1=O)CN(C(C)=O)CCN(C(=O)NC(C)C)C2 (configuration not stated)	-8.93
Cc1cc(CN(C)C(=O)c2cccc(N3CCCS3(=O)=O)c2)no1	-12.6
CCOC(=O)[C@@H]1[C@@H](OC)C(=O)N(C)C12CCN(C(=O)C(CC)CC)CC2	-7.55
O=C(NCCc1ccsc1)c1ccoc1	5.67
Cc1csc(CN2CC(CO)Oc3ccccc32)n1 (configuration not stated)	7.51
